Test system: CCRIS mutagenicity, Ames/micronucleus/aberration tests
experimental-protocol: CCRIS mutagenicity studies
applied-conditions: Test System: AMES SALMONELLA TYPHIMURIUM; Strain/Indicator: TA98; Metabolic Activation: RAT, LIVER, S-9, AROCLOR 1254; Method: PREINCUBATION
Calls of active or inactive are those of the source. No rule for the calls is given here.
Returns: one label drawn from yes for active, no for inactive

Past entries and their recorded results:
* CC(=O)OCC(O)CO (stereo not drawn) | no
* Cc1cc2c(nc1N)[nH]c1ccccc12 | yes

Next, consider the following molecule.
Problem: Given `C1O[C@@H]1[C@@H]1CO1` , state the outcome it received in this test.
Solution: no

* * *

Test system: CCRIS mutagenicity, Ames/micronucleus/aberration tests
experimental-protocol: CCRIS mutagenicity studies
applied-conditions: Test System: AMES SALMONELLA TYPHIMURIUM; Strain/Indicator: TA100; Metabolic Activation: RAT LIVER S-9, AROCLOR 1254; Method: PREINCUBATION
Activity calls are given as the source filed them. No rule for the calls is given here.
Returns: one label drawn from active, inactive

Past entries and their recorded results:
* O=Cc1ccc(Cl)cc1 | inactive
* CC(C)(OOC(C)(C)c1ccccc1)c1ccccc1 | inactive
* CCOC(N)=O | inactive
* C=C(C=O)CCC | active
* Nc1ccc(-c2ccc(N)c(Cl)c2)cc1Cl | active

Problem: Given `C[Si]1(C)O[Si](C)(C)O[Si](C)(C)O[Si](C)(C)O1` , state the outcome it received in this test.
Solution: inactive

Problem: Given `CCCC=O` , state the outcome it received in this test.
Solution: inactive

Problem: Given `COc1cc(OC)c(OC)cc1C=O` , state the outcome it received in this test.
Solution: inactive

* * *

System: CCRIS mutagenicity, Ames/micronucleus/aberration tests
experimental-protocol: CCRIS mutagenicity studies
applied-conditions: Test System: AMES SALMONELLA TYPHIMURIUM; Strain/Indicator: TA102; Metabolic Activation: RAT LIVER S-9, AROCLOR 1254; Method: STANDARD PLATE
Active and inactive are the calls of the source. How the calls were made is not given here.
reported-endpoint: mutagenic call

* CC(=O)c1cc2c(cc1C)C(C)(C)C(C)C2C(C)C (centres undefined) | inactive; negative
* CC1COCc2cc3c(cc21)C(C)(C)C(C)C3(C)C (centres undefined) | inactive; negative
* CCC1C(C)=NN=C(c2ccc(OC)c(OC)c2)c2cc(OC)c(OC)cc21 (centres undefined) | inactive; negative

* * *

System: CCRIS mutagenicity, Ames/micronucleus/aberration tests
experimental-protocol: CCRIS mutagenicity studies
applied-conditions: Test System: AMES SALMONELLA TYPHIMURIUM; Strain/Indicator: TA100; Metabolic Activation: NONE; Method: PREINCUBATION
Calls of active or inactive are those of the source. How the calls were made is not given here.
reported-endpoint: mutagenic call

Check out these entries, answers already filled in.
- Nc1ccc(Oc2ccccc2)cc1: inactive; negative
- O=C(Cl)c1c(Cl)cccc1Cl: active; positive
- CCNc1cccc(O)c1: inactive; negative
- OC1c2cccc3c2C2(OC2C1O)c1ccc2ccccc2c1-3 (centres undefined): active; positive
- O=C(Oc1ccccc1)c1ccccc1O: inactive; negative
- CCCCO[C@@H](CC)CO: inactive; negative
- CCN(CC)c1ccc2c(C)cc(=O)oc2c1: inactive; negative
- CCCCCCC=O: inactive; negative

The recorded mutagenic call for entry `COc1ccc(CN(CCN(C)C)c2ncccn2)cc1` equals inactive; negative

The recorded mutagenic call for entry CCCCC(CC)COC(=O)c1cccc(C(=O)OCC(CC)CCCC)c1 (centres undefined) equals inactive; negative

The recorded mutagenic call for entry `CC(C)=CCC1=C(O)c2ccccc2C(=O)C1=O` equals inactive; negative

The recorded mutagenic call for entry `C#C[C@]1(O)CC[C@H]2[C@@H]3CCC4=CC(=O)CC[C@@H]4[C@H]3CC[C@@]21C` equals inactive; negative

The recorded mutagenic call for entry `O=C(O)Cc1c[nH]c2ccccc12` equals inactive; negative

* * *

System: CCRIS mutagenicity, Ames/micronucleus/aberration tests
experimental-protocol: CCRIS mutagenicity studies
applied-conditions: Test System: AMES SALMONELLA TYPHIMURIUM; Strain/Indicator: TA98; Metabolic Activation: HAMSTER, LIVER, S-9, AROCLOR 1254; Method: STANDARD PLATE
Activity calls are given as the source filed them. No rule for the calls is given here.
Returns: one label drawn from Y (active), N (inactive)

Past entries and their recorded results:
- O=NN1CCCCC1: Y
- CCN(Cc1cccc(S(=O)(=O)O)c1)c1ccc(C(=C2C=CC(=[N+](CC)Cc3cccc(S(=O)(=O)O)c3)C=C2)c2ccccc2S(=O)(=O)[O-])cc1: Y
- CC1=CCC(C(C)(C)O)CC1 (centres undefined): N

Next, consider the following compound.
Problem: Given `CC(C)(C#N)C(C)(C)C#N` , state the outcome it received in this test.
Solution: N

* * *

Tested on: CCRIS mutagenicity, Ames/micronucleus/aberration tests
experimental-protocol: CCRIS mutagenicity studies
applied-conditions: Test System: AMES SALMONELLA TYPHIMURIUM; Strain/Indicator: TA100; Metabolic Activation: RAT, LIVER, MICROSOMES; Method: STANDARD PLATE
The source made the active and inactive calls. The rule behind the calls is not given here.
reported-endpoint: mutagenic call

* Nc1cc2c3ccccc3ccc2c2ccccc12 | active; positive
* c1ccc2c(c1)ccc1c2ccc2ccc3ccccc3c21 | inactive; negative
* Cc1cc2ccccc2c2ccc3ccccc3c12 | inactive; negative
* O=[N+]([O-])c1cc([N+](=O)[O-])c2ccc3cccc4ccc1c2c43 | active; positive

Let's switch to this molecule now.
The recorded mutagenic call for entry `Cc1ccc2c(ccc3c4ccccc4ccc23)c1` equals inactive; negative

* * *

Test system: CCRIS mutagenicity, Ames/micronucleus/aberration tests
experimental-protocol: CCRIS mutagenicity studies
applied-conditions: Test System: AMES SALMONELLA TYPHIMURIUM; Strain/Indicator: TA100; Metabolic Activation: NONE; Method: SUSPENSION
Active and inactive are the calls of the source. No rule for the calls is given here.
Returns: one label drawn from 1 (yes) (active), 0 (no) (inactive)

Past entries and their recorded results:
• O=[N+]([O-])c1ccc2c(c1)oc1ccc([N+](=O)[O-])cc12 = 0 (no)
• O=[N+]([O-])c1cccc2c1oc1ccccc12 = 1 (yes)
• O=[N+]([O-])c1ccc2c(c1)Oc1cc([N+](=O)[O-])ccc1O2 = 0 (no)

Next, consider the following molecule.
Problem: Given `O=[N+]([O-])c1ccc2oc3ccccc3c2c1` , state the outcome it received in this test.
Solution: 0 (no)

* * *

System: CCRIS mutagenicity, Ames/micronucleus/aberration tests
experimental-protocol: CCRIS mutagenicity studies
applied-conditions: Test System: AMES SALMONELLA TYPHIMURIUM; Strain/Indicator: TA102; Metabolic Activation: RAT, LIVER, S-9, AROCLOR 1254; Method: STANDARD PLATE
The source made the active and inactive calls. The rule behind the calls is not given here.
Returns: one label drawn from yes for active, no for inactive

Past entries and their recorded results:
- Cc1nc2c(c3[nH]c4ccccc4c13)C(=O)C=C(N1CC1)C2=O: yes
- COc1ccc(CN(CC[N+](C)(C)[O-])c2ccccn2)cc1: no
- O=C1c2cccc(O)c2C(=O)c2c(O)cc(CO)cc21: yes
- CC1OC(OC2CC(O)(CO)Cc3c(O)c4c(c(O)c32)C(=O)c2ccccc2C4=O)C(I)C(O)C1O (stereo unspecified): no
- Nc1n[nH]c(N)n1: yes
- CCCCOCC(=O)O: no

Problem: Given `CCNc1nc(Cl)nc(NC(C)C)n1` , state the outcome it received in this test.
Solution: no

Problem: Given CC(=O)O[C@H]1CC[C@]2(C)[C@H]3CC[C@]4(C)[C@@H]([C@H](C)CCCC(C)C)CC[C@H]4[C@@H]3C[C@@H]3N(N4C(=O)c5ccccc5C4=O)[C@@]32C1 (stereo partly specified) , state the outcome it received in this test.
Solution: yes

Problem: Given `NC(=O)NO` , state the outcome it received in this test.
Solution: yes

Problem: Given `COc1cc(O)c2c(=O)c(O)c(-c3ccc(O)c(O)c3)oc2c1` , state the outcome it received in this test.
Solution: no

Problem: Given `Cc1ccc(N=CN(C)C=Nc2ccc(C)cc2C)c(C)c1` , state the outcome it received in this test.
Solution: no

* * *

Test system: CCRIS mutagenicity, Ames/micronucleus/aberration tests
experimental-protocol: CCRIS mutagenicity studies
applied-conditions: Test System: AMES SALMONELLA TYPHIMURIUM; Strain/Indicator: TA98; Metabolic Activation: NONE; Method: DESICCATOR
The source made the active and inactive calls. No rule for the calls is given here.
Returns: one label drawn from active, inactive

• CCC(C)(C)C = inactive
• Cl/C=C/CCl = active
• O=C=NCCCCCCN=C=O = inactive

Next, consider the following compound.
Problem: Given `C=C(C)C` , state the outcome it received in this test.
Solution: inactive
